# TARGET_UNDER_TEST: Kelch-like ECH-associated protein 1 (Homo sapiens)
# Sequence (Q14145 whole entry, the tested form may be a part): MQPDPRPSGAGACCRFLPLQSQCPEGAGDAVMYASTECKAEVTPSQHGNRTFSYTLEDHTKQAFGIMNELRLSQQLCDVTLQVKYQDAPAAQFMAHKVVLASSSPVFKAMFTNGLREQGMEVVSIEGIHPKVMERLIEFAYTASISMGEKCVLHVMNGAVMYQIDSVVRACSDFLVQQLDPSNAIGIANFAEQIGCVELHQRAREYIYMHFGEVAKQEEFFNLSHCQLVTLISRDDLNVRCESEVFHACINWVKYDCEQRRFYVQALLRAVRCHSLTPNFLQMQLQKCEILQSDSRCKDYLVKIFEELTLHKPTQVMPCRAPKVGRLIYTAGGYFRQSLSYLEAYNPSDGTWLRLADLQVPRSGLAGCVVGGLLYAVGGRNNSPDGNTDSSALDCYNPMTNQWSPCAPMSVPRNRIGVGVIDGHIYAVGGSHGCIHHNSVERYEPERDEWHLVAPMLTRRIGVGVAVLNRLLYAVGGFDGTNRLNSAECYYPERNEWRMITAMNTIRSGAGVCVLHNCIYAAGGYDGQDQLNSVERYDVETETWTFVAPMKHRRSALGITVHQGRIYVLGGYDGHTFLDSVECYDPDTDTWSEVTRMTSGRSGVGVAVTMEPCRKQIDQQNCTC
# MEASUREMENT_NOTES: Inhibition of FITC-9mer Nrf2 peptide amide/Keap1 Kelch domain (unknown origin) interaction after 30 mins by fluorescence polarization assay
RECORDED_ENDPOINT: EC50
Give the figure together with its unit, number first.

Need EC50, item O=C(N/N=C/c1ccc(-c2ccc(C(=O)O)cc2)o1)N/N=C/c1ccc(-c2ccc(C(=O)O)cc2)o1 9.8 µM
